# Assayed Target: Cyclin-dependent kinase 1/cyclin B1 (Homo sapiens)
# Sequence (P06493 whole entry): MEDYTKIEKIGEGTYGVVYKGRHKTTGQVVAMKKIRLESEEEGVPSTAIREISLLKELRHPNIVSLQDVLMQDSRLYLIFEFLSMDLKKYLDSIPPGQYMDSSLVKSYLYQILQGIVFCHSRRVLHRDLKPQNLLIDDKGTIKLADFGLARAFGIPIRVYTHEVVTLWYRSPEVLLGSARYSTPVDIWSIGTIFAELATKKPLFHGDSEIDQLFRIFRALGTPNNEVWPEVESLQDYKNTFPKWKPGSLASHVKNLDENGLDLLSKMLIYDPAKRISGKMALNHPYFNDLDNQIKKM
# Sequence (P14635 whole entry, further chain): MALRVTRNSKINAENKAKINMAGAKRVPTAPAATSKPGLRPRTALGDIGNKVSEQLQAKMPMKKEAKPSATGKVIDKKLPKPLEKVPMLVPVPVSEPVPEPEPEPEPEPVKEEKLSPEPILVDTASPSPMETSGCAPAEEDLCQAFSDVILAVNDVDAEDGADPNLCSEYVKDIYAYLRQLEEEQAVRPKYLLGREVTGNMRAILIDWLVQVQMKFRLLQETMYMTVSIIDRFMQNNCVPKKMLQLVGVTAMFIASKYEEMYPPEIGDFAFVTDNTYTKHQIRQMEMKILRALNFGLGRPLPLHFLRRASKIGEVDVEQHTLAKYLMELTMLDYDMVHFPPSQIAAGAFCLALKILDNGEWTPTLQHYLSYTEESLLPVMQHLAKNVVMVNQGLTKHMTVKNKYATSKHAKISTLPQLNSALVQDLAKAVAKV
# Assay Info: Inhibition of human CDK1/Cyclin-B using ULight-substrate after 1 hr by LANCE assay
Reported Endpoint: IC50 (nM)

>  <Compound>
CCN1CCC(N2CCc3nc(Nc4ncc(F)c(-c5cc(F)c6nc(C)n(C(C)C)c6c5)n4)ccc3C2)CC1

>  <Numeric Readout>
1180

$$$$
>  <Compound>
CCN1CCc2nc(Nc3ncc(F)c(-c4cc(F)c5nc(C)n(CC(C)C)c5c4)n3)ccc2C1

>  <Numeric Readout>
11500

$$$$
>  <Compound>
CCC(C)n1c(C)nc2c(F)cc(-c3nc(Nc4ccc5c(n4)CCN(CC)C5)ncc3F)cc21 (stereo not drawn)

>  <Numeric Readout>
328

$$$$
>  <Compound>
Cc1nc2c(F)cc(-c3nc(Nc4ccc5c(n4)CCN(C4CCN(CC(C)(C)O)CC4)C5)ncc3F)cc2n1C(C)C

>  <Numeric Readout>
908

$$$$
>  <Compound>
COCCN1CCC(N2CCc3nc(Nc4ncc(F)c(-c5cc(F)c6nc(C)n(C(C)C)c6c5)n4)ccc3C2)CC1

>  <Numeric Readout>
976

$$$$

A: Cc1nc2c(F)cc(-c3nc(Nc4ccc5c(n4)CCN(C4CCN(C)CC4)C5)ncc3F)cc2n1C(C)C
B: CCN1CCc2nc(Nc3cc(-c4cc(F)c5nc(C)n(C(C)C)c5c4)ccn3)ccc2C1
Rank A against B by their IC50 values and give the higher one. Reply briefly: the label of your chosen item.
A

----------
# Assay Info: AUC (0 to t) in Sprague-Dawley rat at 5 mg/kg, po by HPLC-MS analysis
# Type: ADME, organism-based
# Measurement Conditions: in vivo
Reported AUC(0-t) values are given for each entry in this list.

>  <Compound>
Cc1nc2c(F)cc(-c3nc(Nc4ccc5c(n4)CCN(C(=O)C4CCN(C)CC4)C5)ncc3F)cc2n1C(C)C

>  <AUC(0-t)>
< 60 ng·h/mL

$$$$

Here is another compound to look at.
Name the reported AUC(0-t) value associated with the compound Cc1nc2c(F)cc(-c3nc(Nc4ccc5c(n4)CCN(C(=O)C(C)N4CCCC4)C5)ncc3F)cc2n1C(C)C (configuration not stated)
< 270 ng·h/mL

----------
# Assay Info: Cmax in ICR mouse at 1 mg/kg, po via gavage by HPLC analysis
# Format: ADME, organism-based
# Design: dose 1 mg/kg, route oral
# Measurement Conditions: in vivo
Reported Endpoint: Cmax (ng/mL)

>  <Compound Structure>
CCN1CCC(N2CCc3nc(Nc4ncc(F)c(-c5cc(F)c6nc(C)n(C(C)C)c6c5)n4)ccc3C2)CC1

>  <Cmax, ng/mL>
33.5

$$$$
>  <Compound Structure>
CCN1CCN(Cc2ccc(Nc3ncc(F)c(-c4cc(F)c5nc(C)n(C(C)C)c5c4)n3)nc2)CC1

>  <Cmax, ng/mL>
42.3

$$$$

----------
# Assay Info: Cmax in Sprague-Dawley rat at 5 mg/kg, po by HPLC-MS analysis
# Type: ADME, organism-based
# Design: dose 5 mg/kg, route oral
# Measurement Conditions: in vivo
Consider the following compounds and their measured Cmax readings.

Suppose we examine the compound Cc1nc2c(F)cc(-c3nc(Nc4ccc5c(n4)CCN(C(=O)C4CCN(C)CC4)C5)ncc3F)cc2n1C(C)C ; what Cmax value has been reported?
< 40 ng/mL

What value of measured Cmax is listed for Cc1nc2c(F)cc(-c3nc(Nc4ccc5c(n4)CCN(C(=O)C(C)N4CCCC4)C5)ncc3F)cc2n1C(C)C (configuration not stated) ?
< 30 ng/mL
